Give measured %Inh for each item. Keep answers brief.
System: PDGFRB;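 further: KINOMEscan kinase panel screen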
setup conditions: concentration: 1 μM, replicates: in singlicate; n = 1
One number for each entry, in %.

1) CCCc1ccc(S(=O)(=O)NC2CCN(c3ccnc(Nc4ccc(OC)cc4)n3)C2)cc1 (stereo not drawn)
51
2) CSc1ccc(NC2=C(c3ccccc3Cl)C(=O)NC2=O)cc1
31
3) Clc1cccc(-c2nc(Nc3ccncc3)c3ccccc3n2)c1
12
4) Cl.Fc1ccccc1COc1ccc(Nc2ncnc3ccc(-c4nnc(C(F)(F)F)o4)cc23)cc1Cl
20
5) CCC(CC)(CC)n1cnc2c(N)ncnc21
0

Now look at this one.
Suppose we examine the compound `Cc1ccc(C)c(NC(=O)NCCNc2ccnc(Nc3ccc(F)cc3)n2)c1` ; what %Inh value has been reported?
6

Cited source for all entries: paper PMC5540273
